- Tested on: HeLa Kyoto
- PROTOCOL DETAILS: melting temperature (median over replicates), in situ; higher = more thermally stable
- ASSAY SETUP: cell cycle stage: G1/S
Task for the reader: assign each of the following sequences its reported melting temperature.

Tested system HeLa Kyoto; melting temperature recorded for MDGLLNPRESSKFIAENSRDVFIDSGGVRRVAELLLAKAAGPELRVEGWKALHELNPRAADEAAVNWVFVTDTLNFSFWSEQDEHKCVVRYRGKTYSGYWSLCAAVNRALDEGIPITSASYYATVTLDQVRNILRSDTDVSMPLVEERHRILNETGKILLEKFGGSFLNCVRESENSAQKLMHLVVESFPSYRDVTLFEGKRVSFYKRAQILVADTWSVLEGKGDGCFKDISSITMFADYRLPQVLAHLGALKYSDDLLKKLLKGEMLSYGDRQEVEIRGCSLWCVELIRDCLLELIEQKGEKPNGEINSILLDYYLWDYAHDHREDMKGIPFHRIRCIYY [C9ORF64] was 50.2 °C

Tested system HeLa Kyoto; melting temperature recorded for MAGGGAGDPGLGAAAAPAPETREHLFKVLVIGELGVGKTSIIKRYVHQLFSQHYRATIGVDFALKVLNWDSRTLVRLQLWDIAGQERFGNMTRVYYKEAVGAFVVFDISRSSTFEAVLKWKSDLDSKVHLPNGSPIPAVLLANKCDQNKDSSQSPSQVDQFCKEHGFAGWFETSAKDNINIEEAARFLVEKILVNHQSFPNEENDVDKIKLDQETLRAENKSQCC [RAB32] was 51.8 °C

Tested system HeLa Kyoto; melting temperature recorded for MSDVEENNFEGRESRSQSKSPTGTPARVKSESRSGSRSPSRVSKHSESHSRSRSKSRSRSRRHSHRRYTRSRSHSHSHRRRSRSRSYTPEYRRRRSRSHSPMSNRRRHTGSRANPDPNTCLGVFGLSLYTTERDLREVFSRYGPLSGVNVVYDQRTGRSRGFAFVYFERIDDSKEAMERANGMELDGRRIRVDYSITKRAHTPTPGIYMGRPTHSGGGGGGGGGGGGGGGGRRRDSYYDRGYDRGYDRYEDYDYRYRRRSPSPYYSRYRSRSRSRSYSPRRY [TRA2A] was 49.1 °C

* * *

- Test system: HeLa Kyoto
- PROTOCOL DETAILS: thermal stability score vs G1/S (z-score of summed log2 fold changes over temperatures); higher = more thermally stable than in G1/S
- ASSAY SETUP: cell cycle stage: early G1 (4.5 h after nocodazole release)
Task for the reader: assign each of the following substances its reported thermal stability score.
Just the number, please, no unit after it.

MAARWRFWCVSVTMVVALLIVCDVPSASAQRKKEMVLSEKVSQLMEWTNKRPVIRMNGDKFRRLVKAPPRNYSVIVMFTALQLHRQCVVCKQADEEFQILANSWRYSSAFTNRIFFAMVDFDEGSDVFQMLNMNSAPTFINFPAKGKPKRGDTYELQVRGFSAEQIARWIADRTDVNIRVIRPPNYAGPLMLGLLLAVIGGLVYLRRSNMEFLFNKTGWAFAALCFVLAMTSGQMWNHIRGPPYAHKNPHTGHVNYIHGSSQAQFVAETHIVLLFNGGVTLGMVLLCEAATSDMDIGKRKIMCVAGIGLVVLFFSWMLSIFRSKYHGYPYSFLMS [MAGT1] yielded thermal stability score of 2.09

MSEPIRVLVTGAAGQIAYSLLYSIGNGSVFGKDQPIILVLLDITPMMGVLDGVLMELQDCALPLLKDVIATDKEDVAFKDLDVAILVGSMPRREGMERKDLLKANVKIFKSQGAALDKYAKKSVKVIVVGNPANTNCLTASKSAPSIPKENFSCLTRLDHNRAKAQIALKLGVTANDVKNVIIWGNHSSTQYPDVNHAKVKLQGKEVGVYEALKDDSWLKGEFVTTVQQRGAAVIKARKLSSAMSAAKAICDHVRDIWFGTPEGEFVSMGVISDGNSYGVPDDLLYSFPVVIKNKTWKFVEGLPINDFSREKMDLTAKELTEEKESAFEFLSSA [MDH1] yielded thermal stability score of -0.848

`SMARCA2` yielded thermal stability score of 2.43

MARSVRVLVDMDGVLADFEAGLLRGFRRRFPEEPHVPLEQRRGFLAREQYRALRPDLADKVASVYEAPGFFLDLEPIPGALDAVREMNDLPDTQVFICTSPLLKYHHCVGEKYRWVEQHLGPQFVERIILTRDKTVVLGDLLIDDKDTVRGQEETPSWEHILFTCCHNRHLVLPPTRRRLLSWSDNWREILDSKRGAAQRE [NT5C] yielded thermal stability score of -0.241
